test system: T lymphocyte cell line Jurkat E6-1; test: Cytotoxicity (CCK-8 viability); type: cell-based; settings: 20 μM, 20 h culture
Simple rule here: viability relative to non-treated cells, 20 μM (%) less than 90% is True, otherwise False.

As a guide, the following entries are already answered.
CCCCCCCCCCCCNC(=O)c1ccccc1O
True
C=CCCCCCCCCCNC(=O)c1ccccc1Br
False
CC(C)=CCC/C(C)=C/CNC(=O)c1ccccc1Br
False
CCCCC(CC)CNC(=O)c1ccccc1Br (stereo not shown)
False
CC(C)=CCC/C(C)=C/CNC(=O)c1ccccc1F
True
CC(C)=CCC/C(C)=C/CC/C(C)=C/COC(=O)c1ccccc1Br
True

API: the following record is the query input.
Qu. Problem: For the compound CCCCCCCCCCNC(=O)c1ccccc1Br , is viability relative to non-treated cells, 20 μM (%) under 90%?
Ans. True
